Every entry's value here was drawn from paper PMC9352680.

Target: T1, PUF4 RNA-binding domain (Saccharomyces cerevisiae, UniProt P25339 537-888)
T1 sequence: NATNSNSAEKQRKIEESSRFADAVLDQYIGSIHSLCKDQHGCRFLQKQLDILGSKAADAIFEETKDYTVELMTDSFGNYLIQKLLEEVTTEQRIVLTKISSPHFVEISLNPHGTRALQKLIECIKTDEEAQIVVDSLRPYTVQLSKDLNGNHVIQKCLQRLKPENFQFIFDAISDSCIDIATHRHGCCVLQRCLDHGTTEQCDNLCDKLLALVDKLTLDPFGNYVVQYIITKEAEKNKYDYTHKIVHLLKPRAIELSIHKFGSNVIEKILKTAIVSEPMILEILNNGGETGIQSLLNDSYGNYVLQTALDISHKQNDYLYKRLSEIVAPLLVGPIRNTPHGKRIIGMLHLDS
Assay: Mg; RNA-MaP; 20 mM Na-HEPES pH 7.4, 30 mM KOAc, 0.75 mM MgCl2, 0.1% Tween-20, 5% glycerol, 0.1 mg/mL BSA, 2 mM DTT; 25 C; 0.0125-409.6 nM protein
Details: tags: N-His6-TEV cleaved; C-SNAP kept, Cy3B-labelled; label: tethered on chip by stalled RNA polymerase
This section presents binders with their documented Kd values.
// return numeric value only (unit: nM, not printed)

Completed entries (count: 3):
>>> number("UCUCUUUGUGUGUUAUCUCUU (ssRNA) [Ib_S1_P4E.1_K4.1_C4.1_H4.1_[A4G]_A4.1_[A6G]_F4.1_T4.1]")
43.8
>>> number("Ia_S2_P5E.1_K5.1_C5.1_H5.1_[T1C]_A5.1_F5.1_T5.1 (ssRNA) RNA: UUUGAUUAAUAUGAUAUCGUUCUUUCUCGUAUUAUUAUUCUUUCUCGAUAUCAUAUUAAUCUUU")
258
>>> number("Ic_S4_P5E.1_K5.1_C5.1_H5.1_A5.1_F5.1_[T8C]_[T9C]_[A10T]_T5.1 (ssRNA) RNA: UUUGACAACUGAUCGUUCUUUCUUGUAUUACCUUUCUUUCUCGAUCAGUUGUCUUU")
160

Data request: Please report the recorded Kd for UCUCUUUUUAUAUAUUAACUCUCUU (ssRNA) [Id_ii_S1_P4E.3_K4.2_C4.2_[C-2T]_H4.2_A4.1_F4.1_T4.2_[G10A]_[T11C]] .
Data returned: 31.8

Data request: Please report the recorded Kd for Ie_S4_P5E.1_K5.1_C5.1_H5.1_A5.1_F5.1_[+8CTCT]_T5.1 (ssRNA) RNA: UUUGACAACUGAUCGUUCUUUCUUGUAUUAUCUCUUAUUCUUUCUCGAUCAGUUGUCUUU .
Data returned: 27.8
